# system_name: human melanin concentrating hormone receptor (MCHR1) (Homo sapiens, UniProt Q99705, A5T/E4Q)
# Sequence (Q99705 whole entry E4Q/A5T): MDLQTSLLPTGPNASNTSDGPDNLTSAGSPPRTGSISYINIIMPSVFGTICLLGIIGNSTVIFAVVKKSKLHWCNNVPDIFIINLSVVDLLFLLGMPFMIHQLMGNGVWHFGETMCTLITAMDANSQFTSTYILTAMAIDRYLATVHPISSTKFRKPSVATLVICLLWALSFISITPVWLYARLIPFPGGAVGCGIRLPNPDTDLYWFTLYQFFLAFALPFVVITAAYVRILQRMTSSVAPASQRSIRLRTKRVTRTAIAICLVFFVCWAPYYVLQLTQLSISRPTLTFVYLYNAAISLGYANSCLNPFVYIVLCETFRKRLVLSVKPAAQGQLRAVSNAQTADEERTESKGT
# method_summary: Radioligand binding assay for assessment of MCHR1 activity
# particulars: membranes from HEK-293 cells expressing a mutated (E4Q, A5T) hMCHR1 receptor; competition with 0.06 - 0.1 nM [Phe13, [125I]Tyr19]-MCH; 90 min
readout_name: Ki (nM)

compound="COc1cc(N2CCC(Oc3ccc(-c4ccccc4)cn3)C2=O)ccc1OCC(C)(C)O (stereo not shown)" measured=13
compound="Cc1cc(N2CCC(Oc3ccc(I)cc3)C2=O)ccc1OCC(C)(C)O (stereo not shown)" measured=22
compound="Cc1cc(N2CCC(Oc3ccc(-c4ccccc4)cc3)C2=O)ccc1OCCS(C)(=O)=O (stereo not shown)" measured=1
compound="COc1cc(N2CCC(Oc3ccc(C4CC4)cc3)C2=O)ccc1OC[C@@H](O)CS(C)(=O)=O (stereo partly shown)" measured=32

----------
Catalogue of pKi values
# system_name: human melanin concentrating hormone receptor (MCHR1) (Homo sapiens, UniProt Q99705, A5T/E4Q)
# method_summary: Radioligand binding assay for assessment of MCHR1 activity
# particulars: membranes from HEK-293 cells expressing a mutated (E4Q, A5T) hMCHR1 receptor; competition with 0.06 - 0.1 nM [Phe13, [125I]Tyr19]-MCH; 90 min
pKi: −log10 of the molar value.
readout_name: pKi

compound="COc1cc(N2CCC(Oc3ccc(-c4ccccc4)c(Cl)c3)C2=O)ccc1OCC(C)(C)O (stereo not shown)" measured=7.06
compound=Cc1cc(N2CC[C@H](Oc3ccc(C4CC4)cc3)C2=O)ccc1OCC(C)(C)O measured=6.77
compound="COc1cc(N2CCC(Oc3ccc(-c4ccc(F)cc4)cc3)C2=O)ccc1OC[C@@H](O)CS(C)(=O)=O (stereo partly shown)" measured=7.42
compound="CCS(=O)(=O)C[C@@H](O)COc1ccc(N2CCC(Oc3ccc(OC4CC4)cc3)C2=O)cc1OC (stereo partly shown)" measured=7.15
compound="CCS(=O)(=O)C[C@@H](O)COc1ccc(N2CCC(Oc3ccc(C4CC4)cc3)C2=O)cc1OC (stereo partly shown)" measured=7.80
compound="COc1cc(N2CCC(Oc3ccc(OC(F)(F)F)cc3)C2=O)ccc1OCC(C)(C)O (stereo not shown)" measured=6.87
compound="COc1cc(N2CCC(Oc3ccc(-c4ccccc4)cc3)C2=O)ccc1OCCS(=O)(=O)CC(C)(C)O (stereo not shown)" measured=7.89
compound="COc1cc(N2CCC(Oc3ccc(-n4cccc4)cc3)C2=O)ccc1OCC(C)(C)O (stereo not shown)" measured=8.30
compound="COc1cc(N2CCC(Oc3ccc(-c4ccccc4)nc3)C2=O)ccc1OCC(C)(C)O (stereo not shown)" measured=7.09
compound="COc1cc(N2CCC(Oc3ccccc3C(F)(F)F)C2=O)ccc1OCC(C)(C)O (stereo not shown)" measured=5.15
compound="CCS(=O)(=O)C[C@@H](O)COc1ccc(N2CCC(Oc3ccc(-c4ccc(F)cc4)cc3)C2=O)cc1OC (stereo partly shown)" measured=7.68
compound=Cc1cc(N2CC[C@@H](Oc3ccc(-c4ccc(F)cc4)cc3)C2=O)ccc1OCCS(C)(=O)=O measured=8.52
compound="Cc1cc(N2CCC(Oc3ccc(-c4ccc(F)cc4)cc3)C2=O)ccc1OC[C@@H](O)CS(C)(=O)=O (stereo partly shown)" measured=7.72
compound="COc1cc(N2CCC(Oc3ccc(Br)c(F)c3)C2=O)ccc1OCC(C)(C)O (stereo not shown)" measured=6.09
compound="COc1cc(N2CCC(Oc3cccc(OC(F)(F)F)c3)C2=O)ccc1OCC(C)(C)O (stereo not shown)" measured=5.30
compound="COc1cc(N2CCC(Oc3ccc(-c4ccccc4)cc3)C2=O)ccc1OC[C@@H](O)CS(C)(=O)=O (stereo partly shown)" measured=7.96

----------
# system_name: human melanin concentrating hormone receptor (MCHR1) (Homo sapiens, UniProt Q99705, A5T/E4Q)
# method_summary: Radioligand binding assay for assessment of MCHR1 activity
# particulars: membranes from HEK-293 cells expressing a mutated (E4Q, A5T) hMCHR1 receptor; competition with 0.06 - 0.1 nM [Phe13, [125I]Tyr19]-MCH; 90 min
Note to self: use yes only for Ki readings below 30 nM; a reading exactly at 30 nM still gets no.

compound="Cc1cc(N2CCC(Oc3ccc(C(F)(F)F)cn3)C2=O)ccc1OCC(C)(C)O (centres unmarked) [Example 86]" category=no
compound="CCS(=O)(=O)C[C@@H](O)COc1ccc(N2CCC(Oc3ccc(OC(F)(F)F)cc3)C2=O)cc1OC (some centres unmarked) [Example 51]" category=no
compound="Cc1cc(N2CCC(Oc3ccc(-c4cccc(F)c4)cc3)C2=O)ccc1OCCS(C)(=O)=O (centres unmarked) [Example 108]" category=yes
compound="CCS(=O)(=O)C[C@@H](O)COc1ccc(N2CCC(Oc3ccc(-c4ccccc4)cc3)C2=O)cc1C (some centres unmarked) [Example 91]" category=yes
compound="CCS(=O)(=O)C[C@@H](O)COc1ccc(N2CCC(Oc3ccc(C(F)(F)F)cc3)C2=O)cc1OC (some centres unmarked) [Example 53]" category=no
compound="Cc1cc(N2CCC(Oc3ccc(-c4ccccc4)cc3)C2=O)ccc1OCC(C)(C)O (centres unmarked) [Example 80]" category=yes
compound="COc1cc(N2CCC(Oc3ccc(C4CC4)cc3)C2=O)ccc1OC[C@H](O)CS(C)(=O)=O (some centres unmarked) [Example 60]" category=yes
compound="COc1cc(N2CCC(Oc3ccc(-c4ccccc4F)c(F)c3)C2=O)ccc1OCC(C)(C)O (centres unmarked) [Example 31]" category=no

----------
Recorded pKi for the following compounds
# system_name: human melanin concentrating hormone receptor (MCHR1) (Homo sapiens, UniProt Q99705, A5T/E4Q)
# method_summary: Radioligand binding assay for assessment of MCHR1 activity
# particulars: membranes from HEK-293 cells expressing a mutated (E4Q, A5T) hMCHR1 receptor; competition with 0.06 - 0.1 nM [Phe13, [125I]Tyr19]-MCH; 90 min
pKi: −log10 of the molar value.
readout_name: pKi

compound="COc1cc(N2CCC(Oc3ccc(OC(F)(F)F)cc3)C2=O)ccc1OCCS(C)(=O)=O (centres unmarked)" readout_name=pKi measured=8.10
compound="COc1cc(N2CC[C@H](Oc3ccc(C(F)(F)F)cc3)C2=O)ccc1OCC(C)(C)O (single isomer, unassigned)" readout_name=pKi measured=5.22
compound="COc1cccc(OC2CCN(c3ccc(OCC(C)(C)O)c(OC)c3)C2=O)c1 (centres unmarked)" readout_name=pKi measured=6.66
compound=Cc1cc(N2CC[C@H](Oc3ccc(OC(F)(F)F)cc3)C2=O)ccc1OCC(C)(C)O readout_name=pKi measured=5.22
compound="COc1cc(N2CCC(Oc3cccc(Cl)c3)C2=O)ccc1OCC(C)(C)O (centres unmarked)" readout_name=pKi measured=5.00
compound="CCS(=O)(=O)C[C@@H](O)COc1ccc(N2CCC(Oc3ccc(-c4cccc(F)c4)cc3)C2=O)cc1OC (some centres unmarked)" readout_name=pKi measured=7.42
compound="Cc1cc(N2CCC(Oc3ccc(-c4ccccc4)nc3)C2=O)ccc1OCC(C)(C)O (centres unmarked)" readout_name=pKi measured=7.35
compound="Cc1cc(N2CCC(Oc3ccc(C(F)(F)F)cc3)C2=O)ccc1OCCS(C)(=O)=O (centres unmarked)" readout_name=pKi measured=7.51
compound=Cc1cc(N2CC[C@@H](Oc3ccc(OC(F)(F)F)cc3)C2=O)ccc1OCC(C)(C)O readout_name=pKi measured=7.96
compound="COc1cc(N2CCC(Oc3ccc(-c4ccncc4)cc3)C2=O)ccc1OCC(C)(C)O (centres unmarked)" readout_name=pKi measured=7.14
compound="Cc1cc(N2CCC(Oc3ccc(OC(F)(F)F)cc3)C2=O)ccc1OCC(C)(C)O (centres unmarked)" readout_name=pKi measured=7.82
compound="Cc1cc(N2CCC(Oc3ccc(-c4ccc(F)cc4)cc3)C2=O)ccc1OC[C@H](O)CS(C)(=O)=O (some centres unmarked)" readout_name=pKi measured=7.66
compound="COc1cc(N2CCC(Oc3ccc(-n4ccnc4)cc3)C2=O)ccc1OCC(C)(C)O (centres unmarked)" readout_name=pKi measured=6.32
compound="Cc1cc(N2CCC(Oc3ccc(C(F)(F)F)cc3)C2=O)ccc1OCC(C)(C)O (centres unmarked)" readout_name=pKi measured=7.59
compound="CCS(=O)(=O)C[C@@H](O)COc1ccc(N2CCC(Oc3ccc(C4CC4)cc3)C2=O)cc1C (some centres unmarked)" readout_name=pKi measured=7.24
compound="COc1cc(N2CCC(Oc3ccccc3Cl)C2=O)ccc1OCC(C)(C)O (centres unmarked)" readout_name=pKi measured=5.30
compound="Cc1cc(N2CCC(Oc3ccc(CC(F)(F)F)cc3)C2=O)ccc1OCC(C)(C)O (centres unmarked)" readout_name=pKi measured=7.66
compound="CCS(=O)(=O)C[C@@H](O)COc1ccc(N2CCC(Oc3ccc(-c4ccc(F)cc4)cc3)C2=O)cc1C (some centres unmarked)" readout_name=pKi measured=7.66
compound="COc1ccc(OC2CCN(c3ccc(OCC(C)(C)O)c(OC)c3)C2=O)cc1 (centres unmarked)" readout_name=pKi measured=6.18
compound="COc1cc(N2CCC(Oc3ccc(-c4ccccc4F)cc3)C2=O)ccc1OCCS(C)(=O)=O (centres unmarked)" readout_name=pKi measured=8.22
compound="Cc1cc(N2CCC(Oc3ccc(-c4ccncc4)cc3)C2=O)ccc1OCC(C)(C)O (centres unmarked)" readout_name=pKi measured=7.43
compound="COc1cc(N2CCC(Oc3ccc(-c4ccc(F)cc4)cc3)C2=O)ccc1OC[C@H](O)CS(C)(=O)=O (some centres unmarked)" readout_name=pKi measured=7.74
compound="Cc1cc(N2CCC(Oc3ccc(N4CCOCC4)cc3)C2=O)ccc1OCC(C)(C)O (centres unmarked)" readout_name=pKi measured=6.04
compound="COc1cc(N2CCC(Oc3ccc(C4CC4)cc3)C2=O)ccc1OCCS(=O)(=O)CC(C)(C)O (centres unmarked)" readout_name=pKi measured=7.19
compound=COc1cc(N2CC=C(Oc3ccc(C4CC4)cc3)C2=O)ccc1OC[C@H](O)C1CC1 readout_name=pKi measured=8.70
compound="CCS(=O)(=O)C[C@@H](O)COc1ccc(N2CCC(Oc3ccc(OC(F)(F)F)cc3)C2=O)cc1C (some centres unmarked)" readout_name=pKi measured=6.15
compound="Cc1cc(N2CCC(Oc3ccc(C4CC4)cc3)C2=O)ccc1OC[C@H](O)CS(C)(=O)=O (some centres unmarked)" readout_name=pKi measured=7.10
compound=Cc1cc(N2CC=C(Oc3ccc(OC(F)(F)F)cc3)C2=O)ccc1OCC(C)(C)O readout_name=pKi measured=7.60
compound="Cc1cc(N2CCC(Oc3ccc(C(F)(F)F)cc3)C2=O)ccc1OC[C@H](O)CS(C)(=O)=O (some centres unmarked)" readout_name=pKi measured=5.85
compound="Cc1cc(N2CCC(Oc3ccc(OC(F)(F)F)cc3)C2=O)ccc1OCCS(C)(=O)=O (centres unmarked)" readout_name=pKi measured=7.40
compound="COc1cc(N2CCC(Oc3ccc(-c4cccnc4)cc3)C2=O)ccc1OCC(C)(C)O (centres unmarked)" readout_name=pKi measured=7.17
compound="COc1cc(N2CCC(Oc3ccc(-c4ccccc4C(F)(F)F)cc3)C2=O)ccc1OCC(C)(C)O (centres unmarked)" readout_name=pKi measured=6.02
